Each recorded value in this set is attributed to ChEMBL document CHEMBL1201862.

system: UACC-62; assay: NCI tumour cell line growth inhibition, 48 h
Calls of active or inactive are those of the source. No stated cut-off is given here; in the data, active = GI50 up to about 1.1 µM and inactive = higher.
Would you mind answering with one of these outcomes? 1 for active, 0 for inactive

Would you please look over these solved cases?
[[record]]
smi = "O=C(NNC(=S)Nc1cccc(Cl)c1)c1cc(-c2ccccc2)nc2ccccc12"
label_value = 0

[[record]]
smi = "CCOC(=O)C1=C(O)C(=O)c2ccccc2C1=O"
label_value = 0

[[record]]
smi = "O=C(Nc1ccc(Cl)cc1)C(=O)C1=C(O)c2ccccc2OC1"
label_value = 0


Outcome? COC(=O)c1cc2c(n1S(=O)(=O)c1ccc(C)cc1)C(=O)C(=O)c1[nH]cc(C(=O)OCc3ccccc3)c1-2
1

Outcome? C/N=C(\S)N/N=C/C(C)=N/N/C(S)=N/C
0

====

test system: SF-295; experiment: NCI tumour cell line growth inhibition, 48 h
The source made the active and inactive calls. Cut-off read from the data, not from the text of the source: active = GI50 up to about 1.1 µM and inactive = higher.
Exercise: for every item that follows, state its recorded GI50.

[[record]]
molecule = "CC1=NCCc2cc3[nH]c4ccccc4c3cc21"
experimental_value = "13.4 µM (inactive)"

[[record]]
molecule = "C[C@@H](C1CCC2C3C(=CC(=O)[C@@]21C)[C@H](C)[C@]1(CCC(=O)O1)C1OC31)[C@H]1C[C@]2(C)O[C@@](C)(O1)OC2(C)C (stereo partly specified)"
experimental_value = "> 100 µM (inactive)"

[[record]]
molecule = "O=c1[nH]c(=O)n(C2CC(O)C(CO)O2)cc1C#Cc1c(F)c(F)c(F)c(F)c1F (stereo unspecified)"
experimental_value = "> 100 µM (inactive)"

[[record]]
molecule = "CC[C@@H]1CC[C@@H]2[C@H](CC[C@]3(C)[C@@H](OS(=O)(=O)c4ccc(C)cc4)CC[C@@H]23)[C@H]1COS(=O)(=O)c1ccc(C)cc1"
experimental_value = "> 100 µM (inactive)"

[[record]]
molecule = "O=c1c2ccccc2[nH]c(=S)n1-c1ccc(/N=N/c2cccc3c(O)cccc23)cc1"
experimental_value = "> 100 µM (inactive)"


Dear colleague, could you please provide GI50 for the molecules listed below?
1. CC(C)(C)OC(=O)NCCCCC(NC(=O)OCc1ccccc1)C(N)=O (stereo unspecified)
2. CC1CCCC2(O1)OC1CC(=O)OC1C1=C2C(=O)c2ccccc2C1=O (stereo unspecified)
3. CC(=O)Nc1ccc(SC#N)c2c(NC(C)=O)cccc12
4. Cc1c(C)c(CC(=O)N2CC2)c(C)c(C)c1CC(=O)N1CC1

> 100 µM (inactive)
17.6 µM (inactive)
> 100 µM (inactive)
3.4 µM (inactive)

Dear colleague, could you please provide GI50 for the molecules listed below?
1. O=C1CSC(c2ccc(Cl)cc2)N1c1ccc(-c2ccc(-n3c(-c4ccccc4)nc4ccccc4c3=O)cc2)cc1 (stereo unspecified)
2. CCOC(=O)C1C(c2ccc(OC)cc2)c2c(n[nH]c2O)CC1(O)OCC (stereo unspecified)
3. CC(=O)/C(=C/NC(=S)Nc1ccccc1)C(=O)Nc1ccccc1C
4. COc1ccc(C2COc3cc(OC(C)=O)c(OC(C)=O)cc3C2)cc1 (stereo unspecified)
5. CC(C)=CCc1cc(C2COc3cc4c(c(O)c3C2=O)C=CC(C)(C)O4)c(O)cc1O (stereo unspecified)

1. 37.5 µM (inactive)
2. 44.8 µM (inactive)
3. > 100 µM (inactive)
4. 14.1 µM (inactive)
5. 17.8 µM (inactive)

Dear colleague, could you please provide GI50 for the molecules listed below?
1. O=C(O)c1ccc2c(c1)Cc1cc([N+](=O)[O-])ccc1-2
2. COc1ccc(C2(O)C(S(=O)(=O)c3ccc(C)cc3)=Cc3ccc(OC)cc32)cc1 (stereo unspecified)
3. COc1ccc2c3c([nH]c(=O)c2c1C(=O)O)-c1ccccc1CC3

1. 90.8 µM (inactive)
2. 28.2 µM (inactive)
3. > 100 µM (inactive)
